Target system: hSSB2 (C-terminally His-tagged) (Homo sapiens, UniProt Q96AH0 1-204)
Sequence (Q96AH0 whole entry): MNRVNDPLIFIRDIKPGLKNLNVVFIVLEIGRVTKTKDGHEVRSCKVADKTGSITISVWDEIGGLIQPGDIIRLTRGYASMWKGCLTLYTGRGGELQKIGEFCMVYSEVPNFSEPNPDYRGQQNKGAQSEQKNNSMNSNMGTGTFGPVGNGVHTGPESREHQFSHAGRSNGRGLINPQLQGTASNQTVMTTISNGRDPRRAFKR
Procedure summary: fluorescence anisotropy; no MgCl2; Hill n 3.3; Anisotropy: standard LLPS buffer without MgCl2 (50 mM KCl standard), 25 C, 10 nM probe; EMSA: standard LLPS buffer (50 mM KCl, 10 mM MgCl2), 50 nM probe, 1% agarose; buffer species and pH not in the material
Run conditions: protein: recombinant; tags: C-terminal His; label: 3'-fluorescein; single strand
Readout type: pKd
// pKd here means minus log10 of the molar concentration (mol/L)

Ask: Looking for the measured pKd of AUUUUUGCGGAUGGCUUAGAGCUUAAUUGCGCAACG (ssRNA) [ss36 RNA] , can you help?
Result: 6.06
